I'd appreciate it if you could supply IC50 values for the items below.

Under PIK3CA (human), report IC50 for Cc1nccn1-c1nc2ccccc2cc1Cn1nc(-c2ccc3nc(N)sc3c2)c2c(N)ncnc21 100 to 1000 nM

Lab note: PIK3CA (human) assay, enter IC50 for CC(=O)Nc1nc2ccc(-c3nn(Cc4nc5ccccc5nc4N4CCCC4)c4ncnc(N)c34)cc2s1 here ≤ 100 nM

---

Consider the following molecules; for each one, report its pIC50.
pIC50: −log10 of the molar value.

Check PIK3CD (Human) data and give pIC50 for Cc1ccccc1-c1nc2ccccc2cc1Cn1nc(-c2ccc3nc(N)sc3c2)c2c(N)ncnc21 . ≥ 7.00

Please respond with reported pIC50 (system PIK3CD (Human)) for CC(=O)Nc1nc2ccc(-c3nn(Cc4nc5ccccc5nc4N4CCCC4)c4ncnc(N)c34)cc2s1 . ≥ 7.00

Answer with pIC50 of Nc1ncnc2c1c(-c1ccc3cn[nH]c3c1)nn2Cc1cc2ccccc2nc1N1CCCC1 measured for PIK3CD (Human). ≥ 7.00

Fill in pIC50 for Nc1ncc(-c2nn(Cc3cc4ccccc4nc3-c3ccccc3)c3ncnc(N)c23)cn1 tested with PIK3CD (Human). 6.00 to 7.00

Please tell me the measured pIC50 for Nc1ncnc2c1c(-c1cccc(O)c1)nn2Cc1cc2ccccc2nc1-c1cccnc1 ; system: PIK3CD (Human). ≥ 7.00
